B1: Cytochrome c-551, P00099 (parent)
chain: MKPYALLSLLATGTLLAQGAWAEDPEVLFKNKGCVACHAIDTKMVGPAYKDVAAKFAGQAGAEAELAQRIKNGSQGVWGPIPMPPNAVSDDEAQTLAKWVLSQK

Variants of: B1
experimental-setup: Pseudomonas aeruginosa (strain ATCC 15692 / DSM 22644 / CIP 104116 / JCM 14847 / LMG 12228 / 1C / PRS 101 / PAO1); pH 3.6; 62.6 °C; Thermal; DSC; sodium acetate 50 mM; reversible: yes; structure 451C; whole UniProt chain shown
Lab note: compare ddG of mutation (higher = less stable) against -2 kcal/mol. Equal or greater, write Met. Smaller, write Not met.

Solved cases (4 shown):
biosequence	assigned-class
MKPYALLSLLATGTLLAQGAWAEDPEVLAKNKGCMACHAIDTKMVGPAYKDVAAKFAGQAGAEAELAQRIKNGSQGVWGPIPMPPNAVSDDEAQTLAKWILSQK [F29A V35M V100I]	Not met
MKPYALLSLLATGTLLAQGAWAEDPEVLAKNKGCMACHAIDTKMVGPAYKDVAAKFAGQAGAEAELAQRIKNGSQGVWGPIPMPPNAVSDDEAQTLAKWVLSQK [F29A V35M]	Met
MKPYALLSLLATGTLLAQGAWAEDPEVLFKNKGCVACHAIDTKMVGPAYKDVAAKFAGQAGAEAELAQRIKNGSQGVWGPIPMPPNAVSDDEAQTLAKWILSQK [V100I]	Met
MKPYALLSLLATGTLLAQGAWAEDPEVLAKNKGCMACHAIDTKMVGPAYKDVAAKYAGQAGAEAYLAQRIKNGSQGVWGPIPMPPNAVSDDEAQTLAKWVLSQK [F29A V35M F56Y E65Y]	Not met

Quick check, ddG of mutation (higher = less stable) >= -2 kcal/mol? MKPYALLSLLATGTLLAQGAWAEDPEVLFKNKGCVACHAIDTKMVGPAYKDVAAKYAGQAGAEAYLAQRIKNGSQGVWGPIPMPPNAVSDDEAQTLAKWVLSQK [F56Y E65Y]
Met

Quick check, ddG of mutation (higher = less stable) >= -2 kcal/mol? MKPYALLSLLATGTLLAQGAWAEDPEVLFKNKGCVACHAIDTKMVGPAYKDVAAKYAGQAGAEAYLAQRIKNGSQGVWGPIPMPPNAVSDDEAQTLAKWILSQK [F56Y E65Y V100I]
Not met

Could you verify whether the entry MKPYALLSLLATGTLLAQGAWAEDPEVLAKNKGCMACHAIDTKMVGPAYKDVAAKYAGQAGAEAYLAQRIKNGSQGVWGPIPMPPNAVSDDEAQTLAKWILSQK [F29A V35M F56Y E65Y V100I] shows ddG of mutation (higher = less stable) of no less than -2 kcal/mol?
Not met
